B1: HDV Ribozyme (parent)
chain: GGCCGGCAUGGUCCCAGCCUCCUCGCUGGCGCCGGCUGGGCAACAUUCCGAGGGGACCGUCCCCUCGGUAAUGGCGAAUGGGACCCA

- Variants of: B1
- experiment: self-cleavage, relative activity (ratio to wild type); higher = more cleavage; co-transcriptional
Label yes when self-cleavage >= 0.2; otherwise no.

Solved entries:
macromolecule_sequence | group
GGCCGGCAUGGUCCCAGCCUCCUCGCUGGCGCCGGCUGGGCAACAUUCCGAGGGGACCGUCCCCUCGGUAAUGGCGAACGUGACCCA [U79C G81U] | yes
GGCCGGCAUGGUCCCAGGCUCCUCGCUGGCGCCGGCUGGGCAACAUUCCGAGGGGACCGUCCCCUCGGUAAUGGCGAAUGGAACCCA [C18G G82A] | no
GGCCGGCAUGGUCCCAGCCACCUCGCUGGCGCCGGCUGGGCAACAUUCCGAGGGGACCGUCCCCUCGGUAAGGGCGAAUGGGACCCA [U20A U72G] | no
GGCCGGCAUGGUCCCAGCCUCCUCGCUGGCGCCGGCUCGGCAACAUUCCGAGGGGACCGGCCCCUCGGUAAUGGCGAAUGGGACCCA [G38C U60G] | no

Does GGCCGGCCUGGUCCCAGCCUCCUCGCUGGCGCCGGCUGGGCAACAUUCUGAGGGGACCGUCCCCUCGGUAAUGGCGAAUGGGACCCA [A8C C49U] have a reported self-cleavage of at least 0.2?
yes

Threshold query (self-cleavage >= 0.2) on GGCCGGCAUGGUGCCAGCCUCCUCGCUGGCGCCGGCUGGGCAACAUUCCGAGGGGACCGACCCCUCGGUAAUGGCGAAUGGGACCCA [C13G U60A]
yes
